# TEST NAME: method code SF, from DOI: 10.1016/s0045-6535(97)00338-x
MEASUREMENT TYPE: logP

[
  {
    "COMPOUND STRUCTURE STRING": "CC(=O)c1ccc(F)cc1",
    "REPORTED MEASUREMENT": 1.74
  },
  {
    "COMPOUND STRUCTURE STRING": "CC(=O)c1cc(F)c(Cl)cc1Cl",
    "REPORTED MEASUREMENT": 3.4
  },
  {
    "COMPOUND STRUCTURE STRING": "Nc1ccc(F)cc1",
    "REPORTED MEASUREMENT": 1.18
  },
  {
    "COMPOUND STRUCTURE STRING": "Nc1ccc(F)c(F)c1F",
    "REPORTED MEASUREMENT": 2.14
  }
]

----------
[
  {
    "COMPOUND STRUCTURE STRING": "O=C(O)CCCCCOC(=O)Oc1ccccc1",
    "logP": 2.56
  },
  {
    "COMPOUND STRUCTURE STRING": "O=C(O)[C@H]1O[C@@H](Oc2ccccc2)[C@H](O)[C@@H](O)[C@@H]1O",
    "logP": 0.73
  },
  {
    "COMPOUND STRUCTURE STRING": "CCOC(=O)Oc1ccccc1",
    "logP": 2.18
  },
  {
    "COMPOUND STRUCTURE STRING": "CC(C)(C)OC(=O)Oc1ccccc1",
    "logP": 3.02
  }
]

----------
[
  {
    "COMPOUND STRUCTURE STRING": "O=C1CN=C(c2ccc(Cl)cc2)c2cc(Br)ccc2N1",
    "logP": 3.78
  },
  {
    "COMPOUND STRUCTURE STRING": "O=C1CN=C(c2ccc(Br)cc2)c2cc(Br)ccc2N1",
    "logP": 4.08
  },
  {
    "COMPOUND STRUCTURE STRING": "O=C1CN=C(c2cccc(Cl)c2)c2ccc(Br)cc2N1",
    "logP": 3.63
  },
  {
    "COMPOUND STRUCTURE STRING": "O=C1CN=C(c2ccccc2Br)c2cc(Br)ccc2N1",
    "logP": 3.3
  }
]

----------
# TEST NAME: method code SF-AS, from DOI: 10.1128/aac.27.1.84, PMID: 2580479
MEASUREMENT TYPE: logP

[
  {
    "COMPOUND STRUCTURE STRING": "CO[C@@]1(NC(=O)CSCC#N)C(=O)N2C(C(=O)O)=C(CSc3nnnn3C)CS[C@@H]21",
    "MEASUREMENT TYPE": "logP",
    "REPORTED MEASUREMENT": -0.6
  }
]

----------
# TEST NAME: method code SF, from DOI: 10.1002/1522-2675(20001004)83:10<2836::aid-hlca2836>3.0.co;2-g
# CONDITION: pH 12.5
MEASUREMENT TYPE: logD

[
  {
    "COMPOUND STRUCTURE STRING": "Cc1ccc(CN)cc1",
    "REPORTED MEASUREMENT": 1.58
  },
  {
    "COMPOUND STRUCTURE STRING": "CNCCc1ccccc1",
    "REPORTED MEASUREMENT": 1.68
  }
]

Values from the SangsterLogP compilation
